Biological target: Diaphorase
Assay: peptide array, 10 uM diaphorase, binding without FAD / with FAD
Readout kind: noFAD/FAD

> print(dat)
           binder  assay.value
1   YRPYGPVYNGGSG            1
2     PRYQNFGGGSG         1.79
3  NVSDLSQFYLSGSG        0.242
